test system: CCRF-CEM leukemia; experiment: NCI-60 one-dose screen, 48 h (100 = growth as untreated, 0 = no growth, -100 = all killed); details: 10 µM unless noted
Compounds without any hit were thinned out: in the full panel of roughly 83,000, 20% have a hit.
Property measured: growth (%)
Give a bare numeral; the unit % is implied.

Lookup result for N#Cc1cccc(-c2nc3ccccn3c2NCCN2CCOCC2)c1 ; measured growth: 92.5

// growth value for CCNCCNc1cc(-c2ccc(F)cc2)c(C#N)c2nc3ccccc3n12 : 27.1

Per the record, Cc1ccc(S(=O)(=O)NN/C(N)=N\S(=O)(=O)c2cc(C)c(Cl)cc2SCc2ccccc2)cc1 has growth of 74.1

The recorded growth for entry N[C@H]1CCC[C@@H]1NCCCCN1C(=O)c2cccc3cccc(c23)C1=O equals 84.5

Recorded result, Cn1c(NCCc2ccc(O)c(O)c2)nc2c1c(=O)n(Cc1ccc(Cl)cc1)c(=O)n2C , growth: 12.8

The value of growth measured for the compound CCCCNCC(=O)Nc1ccc(C(=O)OCC)cc1 turned out to be 79.4

Noted for CCCn1nc(-c2ccccc2)c2c(-c3ccccc3)onc2c1=O : its growth reads 68.7

Per the record, CCCCCOC(=O)c1cccc(NC(=O)CN(CC)CC)c1 has growth of 78.6

Lookup result for COc1cccc(-c2cnco2)c1OCc1c(C)c(COc2c(OC)cccc2-c2cnco2)c(C)c(COc2c(OC)cccc2-c2cnco2)c1C ; measured growth: 94.5

growth reported for this compound CN(C)c1cnccn1 : 60.6
